Method description: MAD study: nacubactam pharmacokinetics, multiple doses and single dose alone or with meropenem
Type: in vivo, human
Experimental parameters: human, plasma and urine, intravenous, 4000 mg, MAD part 2, 4,000 mg q8h for 7 days, day 9, n = 6, geometric mean (%CV)
Property name: CL renal at 7 days (mL/min)
Numbers only here, please. The scale is mL/min.

Memo: NCCONC(=O)[C@@H]1CC[C@@H]2CN1C(=O)N2OS(=O)(=O)O , reported CL renal at 7 days: 113

----------
Method description: MAD study: nacubactam pharmacokinetics, multiple doses and single dose alone or with meropenem
Type: in vivo, human
Experimental parameters: human, plasma, intravenous, 2000 mg, MAD part 1, 2,000 mg q8h for 7 days, day 7, n = 6, geometric mean (%CV)
Property name: half-life (h)
# number only, unit h dropped from output

half-life in this record for NCCONC(=O)[C@@H]1CC[C@@H]2CN1C(=O)N2OS(=O)(=O)O : 2.66

----------
Method description: SAD study: single-dose nacubactam pharmacokinetics (plasma/urine, LC-MS/MS, noncompartmental)
Assay type: in vivo
Experimental parameters: human, plasma, iv, single i.v. dose 50 mg, n = 6, mean (SD)
Property name: k el
Reply with the number, then its unit.

Data point: NCCONC(=O)[C@@H]1CC[C@@H]2CN1C(=O)N2OS(=O)(=O)O ; k el = 0.000106 s⁻¹

----------
Method description: SAD study: single-dose nacubactam pharmacokinetics (plasma/urine, LC-MS/MS, noncompartmental)
Assay type: in vivo
Experimental parameters: human, plasma, iv, single i.v. dose 50 mg, n = 6, mean (SD), read-out: Vss
Property name: Vd (L)
Numbers only; they are read as L.

Please fill in: Vd reported for NCCONC(=O)[C@@H]1CC[C@@H]2CN1C(=O)N2OS(=O)(=O)O = 22.4

----------
Method description: MAD study: nacubactam pharmacokinetics, multiple doses and single dose alone or with meropenem
Format: in vivo, human
Experimental parameters: human, plasma, intravenous, MAD part 3, single dose (day 3) nacubactam 2,000 mg plus meropenem 2,000 mg, geometric mean (%CV)
Property name: half-life (min)
Give your result in min as a bare value.

The measured half-life associated with NCCONC(=O)[C@@H]1CC[C@@H]2CN1C(=O)N2OS(=O)(=O)O [Nacubactam] reads 143

----------
Method description: MAD study: nacubactam pharmacokinetics, multiple doses and single dose alone or with meropenem
Type: in vivo, human
Experimental parameters: human, plasma, intravenous, 4000 mg, MAD part 2, 4,000 mg q8h for 7 days, day 9, n = 6, geometric mean (%CV); read-out: CL (converted)
Property name: clearance (mL/min)
Reply numerically in mL/min, unit not repeated.

For record NCCONC(=O)[C@@H]1CC[C@@H]2CN1C(=O)N2OS(=O)(=O)O [Nacubactam] the listed clearance is 134

----------
Method description: MAD study: nacubactam pharmacokinetics, multiple doses and single dose alone or with meropenem
Assay type: in vivo, human
Experimental parameters: human, plasma and urine, intravenous, 1000 mg, MAD part 1, 1,000 mg q8h for 7 days, day 7, n = 6, geometric mean (%CV)
Description: The MAD study consisted of three parts (Fig. 1). […] Participants were enrolled in two sequential cohorts (cohort 1, followed by cohort 2). […] Participants were also enrolled in two sequential cohorts (cohort 3, followed by cohort 4). […] A washout period of approximately 24 h between treatments was provided. […]
Property name: CL renal at 7 days (mL/min)
Record the value in mL/min, omitting the unit from your answer.

For this compound ( NCCONC(=O)[C@@H]1CC[C@@H]2CN1C(=O)N2OS(=O)(=O)O ), measured CL renal at 7 days is 112
